- Test system: MCF7
- Assay Explanation: Growth inhibition of human MCF7 cells after 48 hrs by MTT assay
- Format: functional
- Study Conditions: MCF7, 48 h
What log10 GI50 was measured for each of the following?
Recorded GI50 (log10, µM)

So, COc1ccc2c(c1)c(C1CC(c3ccccc3)=NN1C(=O)c1ccc(OC)nc1)cn2C (stereo unspecified) ? Its log10 GI50 was 0.00

Consider Cc1ccc(C(=O)N2N=C(c3ccccc3)CC2c2cn(C)c3ccccc23)cn1 (stereo unspecified) . Its measured log10 GI50 is 0.60

Per the records, this compound ( COc1cccc(C2=NN(C(=O)c3ccc(OC)nc3)C(c3cn(C)c4ccc(OC)cc34)C2)c1 (stereo unspecified) ) has log10 GI50 equal to -0.89

Given item COc1ccc(C2=NN(C(=O)c3ccc(OC)nc3)C(c3cn(C)c4ccc(OC)cc34)C2)cc1 (stereo unspecified) , the value recorded as its log10 GI50 is -0.25

Reported log10 GI50 of COc1ccc(C2=NN(C(=O)c3cccnc3)C(c3cn(C)c4ccc(Br)cc34)C2)cc1 (stereo unspecified) : 0.19

According to the records, this compound Cn1cc(C2CC(c3ccc(Br)cc3)=NN2C(=O)c2cccnc2)c2cc(Br)ccc21 (stereo unspecified) displays log10 GI50 of 1.07

// log10 GI50 value for COc1ccc(C2=NN(C(=O)c3cccnc3)C(c3cn(C)c4ccc(Br)cc34)C2)cc1OC (stereo unspecified) : 0.07

Looking up COc1ccc2c(c1)c(C1CC(c3ccc(Cl)cc3)=NN1C(=O)c1ccc(OC)nc1)cn2C (stereo unspecified) , I found its log10 GI50 recorded as 0.57

get_value(item= COc1cc(C2=NN(C(=O)c3ccc(C)nc3)C(c3cn(C)c4ccccc34)C2)cc(OC)c1OC (stereo unspecified) , readout=log10 GI50) returns -0.74
